- system: T1, His-cynomolgus monkey LIGHT (cynomolgus monkey)
- T1 construct: also called His-cynoLIGHT
- T1 chain: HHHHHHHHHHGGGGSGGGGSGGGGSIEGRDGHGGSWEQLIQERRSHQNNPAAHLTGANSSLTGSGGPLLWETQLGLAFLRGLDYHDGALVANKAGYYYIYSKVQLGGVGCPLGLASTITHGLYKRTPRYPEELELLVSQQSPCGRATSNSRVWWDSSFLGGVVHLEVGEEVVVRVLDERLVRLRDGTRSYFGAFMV
- assay: ELISA, His-cynoLIGHT coated
measurement label: EC50 (pM)
Numeric only. Scale: pM

hum_LT-m37-8 (antibody, human IgG4, V domains shown, humanized from LT-m37) VH: QVQLVQSGAEVKKPGASVKVSCKASGYSFTGYFINWVRQAPGQGLEWIGRIYPYNVNTFYNQNFKGRVTMTADKSTSTAYMELSSLRSEDTAVYYCGRGTHYYGSSGAMDYWGQGTLVTVSS VL: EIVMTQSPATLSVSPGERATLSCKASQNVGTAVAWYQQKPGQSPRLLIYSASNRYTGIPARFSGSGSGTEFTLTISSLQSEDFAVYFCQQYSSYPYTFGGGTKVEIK = 44.9

Proceed to the following item.
Please report the recorded EC50 for hum_LT-m37-2 (antibody, human IgG4, V domains shown, humanized from LT-m37) VH: QVQLVQSGAEVKKPGASVKVSCKASGYSFTGYFINWVRQAPGQGLEWIGRIYPYNVNTFYNQNFKGRATLTADKSTSTAYMELSSLRSEDTAVYYCGRGTHYYGSSGAMDYWGQGTLVTVSS VL: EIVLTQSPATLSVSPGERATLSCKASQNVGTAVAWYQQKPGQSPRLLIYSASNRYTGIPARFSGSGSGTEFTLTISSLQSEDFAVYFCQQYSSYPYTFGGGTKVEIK .
51.7
